Molecular target: T1, T cell receptor (TCR) Vγ9 (TRGV9) (human, UniProt Q99603 21-122)
T1 chain (looked up): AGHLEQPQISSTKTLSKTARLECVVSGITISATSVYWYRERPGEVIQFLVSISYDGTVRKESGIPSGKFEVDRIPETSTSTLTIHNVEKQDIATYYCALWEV
Test: cell-based or functional assay
endpoint name: Vg9 T cell %, flow staining

binder="VG9B198 (antibody, human IgG1, lambda, V domains shown) VH: QVQLQESGPGLVKPSETLSLTCTVSGDSISSIYWSWIRQSAGKGLEWIGRIYTTDITNYNPSLKSRVTMSADTSKNQLSLKLTSVTAADTAVYYCAKNGYSYGGFNYWGQGTLVTVSS VL: QSVLTQPPSVSGAPGQRVTISCTGSSSNIGAGYDVHWYQRLPGTAPKLLIYGDSYRPSGVPDRFSGSKSGTSASLAITGLQAEDEADYYCQSYDSSLSVVVFGGGTKLTVLG" reported=3.6%
binder="VG9B430 (antibody, human IgG1, kappa, V domains shown) VH: EVQLLESGGGLVKPGGSLRLSCSASGFTFSSYDMNWVRQAPGKGLEWVSSISSSSSYIYYADSVKGRFTISRDNAKNSLYLQMNSLRAEDTAVYHCARDVGVTTDYYYYGMDVWGQGTMVTVSS VL: EIVLTQSPGTLSLSPGDRATLSCRASQSVASSYLAWYQQKPGQSPRLLIYGASSRATGIPDRFSGSGSGTDFTLTISRLEPEDFAVYYCQQYGSSPPYTFGQGTKLEIKR" reported=10.7%
